Target: Estrogen receptor (Homo sapiens)
Assay: qHTS assay to identify small molecule antagonists of the estrogen receptor alpha (ER-alpha) signaling pathway (AID 743069); further: on the % scale 0 is the no-effect control and ±100 the full control effect
Settings: HEK293 ER-alpha-UAS-bla, beta-lactamase ratio, antagonist mode; series mostly up to 69.4 µM
Inconclusive results are not listed. The source made the active and inactive calls. The call rests on the fitted dose curve; in most records, active means well fitted curve in the direction sought with a large enough effect in the signal ratio in the repeat runs (not every such curve was filed as active); inconclusive means weak or mixed curves, or effect the other way; inactive means no such curve, though single readings can be large or run the other way; the % refers to the signal ratio.
outcome measure: activity, negative = inhibition

Here is how some compounds turned out for activity, negative = inhibition.
For record CC(C)CC(C)(C)C the listed activity, negative = inhibition is inactive

Measured activity, negative = inhibition, CNc1ccccc1 : inactive

Summary for this compound, Clc1cccc(C(c2ccc3nc[nH]c3c2)n2ccnc2)c1 (configuration not stated) : activity, negative = inhibition is inactive

Field activity, negative = inhibition (entry O=C(O)c1c2ccccc2cc2ccccc12 ) reads inactive

Record CCOc1ccc(NC(C)=O)cc1N , field activity, negative = inhibition: inactive

Others:
response.value for CC1(C)CC(O)CC(C)(C)N1[O] (field: activity, negative = inhibition) = inactive

Quick note, activity, negative = inhibition for CC(C)(C)NCC(O)COc1ccc(NC(=O)NC2CCCCC2)cc1 (configuration not stated) landed at inactive

====

Assay: qHTS assay for small molecule agonists of the p53 signaling pathway (AID 651631); further: nearly all actives have a fitted effect of over 15% in size
Conditions: HCT-116 p53RE-bla reporter, beta-lactamase FRET ratio, 16 h; series mostly up to 73.3 µM
From the text: U.S. Tox21 Program National Center for Advancing Translational Sciences [NCATS] NIH Chemical Genomics Center [NCGC] U.S. Environmental Protection Agency [EPA] National Institutes of Environmental Health Sciences [NIEHS] National Toxicology Program [NTP] U.S. Food and Drug Administration [FDA] […] The activation of the reporter gene under culture conditions can be detected by fluorescence intensity. […]
Inconclusive results are not listed. The source made the active and inactive calls. Calls follow the shape of the full dose curve.
Could you please pick one outcome from this set? label 1 = active, label 0 = inactive

Dear colleague, could you share the recorded outcome for Sc1nc(S)nc(S)n1 when you have a moment?
label 0

Entry Cc1ccc2c(Cl)cc(Cl)c(O)c2n1 : call = ?
label 1

Fill in: this test's call for O=C1CCCN1CCO is ___
label 0

Dear colleague, could you share the recorded outcome for O=C(O)CCc1nc2ccccc2[nH]1 when you have a moment?
label 0

What outcome does the record of this test show for O=S(=O)(O)c1cc(Cl)c(Cl)cc1Cl ?
label 0

How was Cc1ccc(S(=O)(=O)NC(=O)NC2CCCC2)cc1 classified in this test?
label 0

// return assay outcome for CS(C)=O
label 0

How did this test come out for CCCCCCCCCC(C)C=O (stereo not drawn) ?
label 0

====

Assay: qHTS assay to identify small molecule antagonists of the sonic hedgehog signaling (Shh) pathway - cell viability counter screen (AID 1259367); further: nearly all actives have a fitted effect of over 55% in size
Details: NIH/3T3 Gli1-Luc viability, CellTiter-Fluor, 24 h; series mostly up to 92.4 µM
Inconclusive results are not listed. Calls of active or inactive are those of the source. The call rests on the fitted dose curve; in most records, active means well fitted cell-killing curve with a large enough effect in the repeat runs; inconclusive means weak or mixed curves, or effect the other way; inactive means no such curve, though single readings can be large or run the other way.
Write down one outcome, taken from active, inactive

// outcome(item) with item = CS(C)=O
inactive

// param item: NCCOCCOCCN ; yields the recorded call
inactive

Per the records of this test, what outcome belongs to CC(O)CN (stereo not given) ?
inactive

I would be grateful if you could indicate the recorded call for C=C[Si](OCC)(OCC)OCC .
inactive

Returns: the outcome recorded for O=C(OC1C[C@H]2CC[C@@H](C1)[N+]21CCCC1)C(O)(c1ccccc1)c1ccccc1 (stereo not given in full) in this assay.
inactive

Hello, I am checking results. What call was entered for CCC(C(=O)O)c1ccc(N2Cc3ccccc3C2=O)cc1 (stereo not given) ?
inactive

# fetch the recorded call for Cc1cc(C)c(C)c(O)c1 here
inactive

Which outcome did this test record for the compound CCCC(=O)OCCC(C)C ?
inactive

So what was the verdict on C=CC(O)CCCCC (stereo not given) in this test?
inactive

Record request — test call for O=C(O)c1cc(C(=O)O)cc([N+](=O)[O-])c1
inactive

Assay result, entry CO[C@@H]1COCC[C@@H]1N[C@@H]1CC[C@@](C(=O)N2CCc3ncc(C(F)(F)F)cc3C2)(C(C)C)C1 — outcome?
inactive

Just curious, what result did Nc1ccccc1Nc1ccccc1 get here?
active

Which outcome did this test record for the compound OCCOc1cccc(OCCO)c1 ?
inactive

Fill in: this test's call for O=C(O)c1cc(C(=O)O)c(C(=O)O)cc1C(=O)O is ___
inactive

Tell me the recorded outcome of this test for O=C(c1ccc(Cl)cc1)c1ccc(Cl)cc1 .
inactive

What classification did O=C(NC1CCN(CCc2c[nH]c3ccccc23)CC1)c1ccccc1 end up with in this test?
inactive

Which outcome was assigned to O=C(O)c1c2ccccc2cc2ccccc12 in this test?
inactive

Name the outcome recorded for CC(C(=O)O)c1ccc(/C=C2\CCCCC2=O)cc1 (stereo not given) in the assay.
inactive

Record request — test call for CC(C)(C)c1cc(C=O)cc(C(C)(C)C)c1O
inactive

Hi, sorry to bother you, what did the test record for Cc1ccc2ccccc2c1[N+](=O)[O-] ?
inactive

Which outcome was entered for the compound C=CC(=O)NC(C)(C)C in this test?
inactive

Hi, do you know how COc1ccc(/C=C/S(=O)(=O)NC(=O)c2ccc(C)cc2Cl)cc1 came out in this test?
inactive

Name the outcome recorded for Nc1cccc2c(=O)[nH][nH]c(=O)c12 in the assay.
inactive

Which outcome was entered for the compound O=[N+]([O-])c1ccccc1CCO in this test?
inactive

Recorded test outcome, item Cc1c(-c2cccnc2)c2ccccc2n1CCCCC(=O)O
inactive

I would be grateful if you could indicate the recorded call for CCCc1ccc(OC)cc1 .
inactive

Hi team, can someone confirm the assay call for O=C(C1CCCCC1)N1CC(=O)N2CCCc3ccccc3C2C1 (stereo not given) ?
inactive

What is the recorded call for this compound in the test? O=C(OCCCCCOC(=O)c1ccccc1)c1ccccc1
inactive

How was C=CC(=O)OCCCCCCCCCC classified in this test?
inactive

Hello, I am checking results. What call was entered for Clc1cc(Cl)c2c(c1)N=C1CCCCCN1C2 ?
inactive

Assay outcome for CC(C)(C(=O)O)c1ccc(C(O)CCCN2CCC(C(O)(c3ccccc3)c3ccccc3)CC2)cc1 (stereo not given) : what was it?
inactive

Fill in: this test's call for CCC(C)C1N=C(C)C(C)S1 (stereo not given) is ___
inactive

Which outcome was assigned to Cc1ccc(S(=O)(=O)NC(=O)NC2CCCC2)cc1 in this test?
inactive

What call does the record list for COC(=O)/C=C/C(C)=C\C=C\C(C)=C\C=C\C=C(C)\C=C\C=C(C)\C=C\C(=O)O ?
inactive

What was the test verdict on CC1(COc2ccc(CC3SC(=O)NC3=O)cc2)CCCCC1 (stereo not given) ?
inactive

Lab log entry: CCCCCO — outcome as called in the assay?
inactive

Recorded test outcome, item C=CC(C)CCC=C(C)C (stereo not given)
inactive

Write down the call the test reported for this compound. Item: CCCCCCCCCCCCSC#N
inactive

Called result for CC(=O)Oc1cccc2c1C(=O)c1c(OC(C)=O)cc(C(=O)O)cc1C2=O
inactive

Please indicate how the test categorized CCCC1CCCC(=O)O1 (stereo not given) .
inactive

Hey, what did the test say about O=C1OC(=O)C2CC=CCC12 (stereo not given) ?
inactive

Could you check what this test reported for Cc1nc(C)c(C)nc1C ?
inactive

# fetch the recorded call for C1CCN(CN2CCCCC2)CC1 here
inactive

Name the outcome recorded for CCCCOc1ccc(N)cc1 in the assay.
inactive

What is the recorded call for this compound in the test? CC(C)=CCC/C(C)=C/C=N/O
inactive

Assay outcome for CCOC(C)OCC : what was it?
inactive

What did the test return for CCCCCCCCCCCCSCCOCCO ?
inactive

Hi, sorry to bother you, what did the test record for O=C(O)c1ccccc1-n1cc(C(=O)O)c(=O)c2cc(Nc3c(F)cc(F)cc3Cl)c(Cl)cc21 ?
inactive

How did this test come out for CCc1c(C)[nH]c2c1C(=O)C(CN1CCOCC1)CC2 (stereo not given) ?
inactive

Please state the recorded outcome for this compound: COc1cc(C)c(Cc2cnc(N)nc2N)cc1OC
inactive

Just curious, what result did CCCC(=O)OCc1ccccc1 get here?
inactive

Dear all, I need the recorded test outcome for CCCc1nc(C)c2c(=O)[nH]c(-c3cc(S(=O)(=O)N4CCN(CC)CC4)ccc3OCC)nn12 , thank you.
inactive

What did this assay record as the result for C[C@H](N)C(=O)N[C@@H](C)C(=O)NC1[C@H]2CN(c3nc4c(cc3F)c(=O)c(C(=O)O)cn4-c3ccc(F)cc3F)C[C@@H]12 (stereo not given in full) ?
inactive

Hi team, can someone confirm the assay call for C[Si](C)(C)O[Si](C)(C)O[Si](C)(C)C ?
inactive

Could you please tell me the result logged for CCOc1ccc2c(c1)C(C)CC(C)(C)N2 (stereo not given) in this assay?
inactive
